- experimental.target: Steroid 17-alpha-hydroxylase/17,20 lyase (Homo sapiens, UniProt P05093)
- Sequence (P05093 whole entry): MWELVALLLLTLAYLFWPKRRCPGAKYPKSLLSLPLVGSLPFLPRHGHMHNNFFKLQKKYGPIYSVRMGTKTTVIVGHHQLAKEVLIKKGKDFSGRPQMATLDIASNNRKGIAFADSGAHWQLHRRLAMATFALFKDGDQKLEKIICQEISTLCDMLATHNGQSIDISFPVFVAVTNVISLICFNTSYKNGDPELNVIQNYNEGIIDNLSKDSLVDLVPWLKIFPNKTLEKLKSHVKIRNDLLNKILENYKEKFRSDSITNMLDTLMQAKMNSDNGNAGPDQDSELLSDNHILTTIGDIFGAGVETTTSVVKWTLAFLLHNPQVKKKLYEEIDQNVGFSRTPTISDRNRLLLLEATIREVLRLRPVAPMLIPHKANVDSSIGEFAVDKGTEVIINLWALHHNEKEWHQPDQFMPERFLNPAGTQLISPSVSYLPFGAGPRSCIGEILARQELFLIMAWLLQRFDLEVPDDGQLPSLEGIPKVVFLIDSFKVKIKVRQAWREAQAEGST
pIC50: −log10 of the molar value.
Would you kindly list pIC50 for each of these compounds?

Please fill in: pIC50 reported for COc1ccc2c(=O)c(Cc3c[nH]cn3)coc2c1 = < 5.00

Please fill in: pIC50 reported for O=c1c(Cc2c[nH]cn2)coc2cc(F)ccc12 = < 5.00

Please fill in: pIC50 reported for O=c1c(Cc2ccncc2)coc2cc(F)ccc12 = 5.18

###

parameter: IC50 (µM)
Report the value in µM with no unit label.

Here O=c1c(Cc2ccncc2)coc2cc(F)ccc12 was tested on Aromatase (Homo sapiens, UniProt P11511), and its IC50 came to 5

Here O=c1c(Cc2c[nH]cn2)coc2cc(F)ccc12 was tested on Aromatase (Homo sapiens, UniProt P11511), and its IC50 came to 3.1

Here COc1ccc2c(=O)c(Cc3c[nH]cn3)coc2c1 was tested on Aromatase (Homo sapiens, UniProt P11511), and its IC50 came to 7.9

###

- experimental.target: Cytochrome P450 11B1, mitochondrial (Homo sapiens, UniProt P15538)
- Sequence (P15538 whole entry): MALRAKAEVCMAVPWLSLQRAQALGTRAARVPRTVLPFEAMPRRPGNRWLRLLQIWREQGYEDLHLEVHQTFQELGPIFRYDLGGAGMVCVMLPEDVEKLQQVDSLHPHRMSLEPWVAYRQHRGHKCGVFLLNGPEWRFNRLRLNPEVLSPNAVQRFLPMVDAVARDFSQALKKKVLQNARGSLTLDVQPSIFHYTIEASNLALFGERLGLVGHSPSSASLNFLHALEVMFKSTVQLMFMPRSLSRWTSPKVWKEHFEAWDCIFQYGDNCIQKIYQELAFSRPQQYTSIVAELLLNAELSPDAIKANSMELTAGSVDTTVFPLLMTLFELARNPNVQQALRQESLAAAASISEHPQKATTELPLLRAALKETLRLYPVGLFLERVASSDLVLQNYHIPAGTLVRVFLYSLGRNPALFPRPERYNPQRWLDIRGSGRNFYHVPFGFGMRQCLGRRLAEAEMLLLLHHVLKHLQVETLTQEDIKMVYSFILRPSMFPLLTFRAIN
- assay.explanation: Inhibition of human CYP11B1 expressed in V79 MZh cells using [1,2-3H]-11-deoxycorticosterone as substrate for 6 hrs by HPTLC analysis
parameter: log10 IC50 (log10 of the value in nM)
Would you kindly interpret these values as log10 of IC50 expressed in nM?

Please fill in: log10 IC50 reported for O=c1c(Cn2ccnc2)coc2ccccc12 = 2.26

Please fill in: log10 IC50 reported for O=c1cc(Cn2ccnc2)oc2cc(F)ccc12 = 2.51

Please fill in: log10 IC50 reported for O=c1c(Cc2ccncc2)coc2cc(F)ccc12 = 1.76

Please fill in: log10 IC50 reported for COc1ccc2c(=O)cc(Cn3ccnc3)oc2c1 = 3.20

Please fill in: log10 IC50 reported for COc1ccc2c(=O)c(Cc3c[nH]cn3)coc2c1 = 2.04

Please fill in: log10 IC50 reported for O=c1c(Cn2ccnc2)coc2cc(F)ccc12 = 1.94

Please fill in: log10 IC50 reported for O=c1cc(Cc2ccncc2)oc2ccccc12 = 2.35

Please fill in: log10 IC50 reported for O=c1cc(Cc2ccncc2)oc2cc(F)ccc12 = 1.92

Please fill in: log10 IC50 reported for COc1ccc2c(=O)c(Cn3ccnc3)coc2c1 = 2.57

Please fill in: log10 IC50 reported for O=c1c(Cc2c[nH]cn2)coc2ccccc12 = 1.47

###

Would you kindly list IC50 for each of these compounds?
- experimental.target: Cytochrome P450 11B1, mitochondrial (Homo sapiens)
- assay.explanation: Inhibition of human CYP11B1 expressed in V79 MZh cells using [1,2-3H]-11-deoxycorticosterone as substrate for 6 hrs by HPTLC analysis
Report the value in nM with no unit label.

Please fill in: IC50 reported for O=c1cc(Cn2ccnc2)oc2ccccc12 = 253

Please fill in: IC50 reported for O=c1c(Cc2ccncc2)coc2ccccc12 = 88.2

Please fill in: IC50 reported for COc1ccc2c(=O)c(Cc3ccncc3)coc2c1 = 612

Please fill in: IC50 reported for COc1ccc2c(=O)cc(Cc3ccncc3)oc2c1 = 3600

Please fill in: IC50 reported for O=c1c(Cc2c[nH]cn2)coc2cc(F)ccc12 = 9.7

###

- Organism: Homo sapiens
- assay.explanation: Selectivity index, ratio of IC50 for human CYP11B2 to IC50 for human CYP11B1
Flag rule - Ratio IC50 less than 5 flags condition met; the remaining entries get condition not met.

# TODO verify Ratio IC50 < 5 strictly for this compound: O=c1c(Cn2ccnc2)coc2ccccc12 condition met

# TODO verify Ratio IC50 < 5 strictly for this compound: O=c1cc(Cn2ccnc2)oc2cc(F)ccc12 condition met

# TODO verify Ratio IC50 < 5 strictly for this compound: O=c1c(Cn2ccnc2)coc2cc(F)ccc12 condition met

# TODO verify Ratio IC50 < 5 strictly for this compound: O=c1cc(Cc2ccncc2)oc2cc(F)ccc12 condition not met

# TODO verify Ratio IC50 < 5 strictly for this compound: O=c1cc(Cc2ccncc2)oc2ccccc12 condition not met

# TODO verify Ratio IC50 < 5 strictly for this compound: O=c1c(Cc2c[nH]cn2)coc2ccccc12 condition met

# TODO verify Ratio IC50 < 5 strictly for this compound: O=c1c(Cc2c[nH]cn2)coc2cc(F)ccc12 condition not met

# TODO verify Ratio IC50 < 5 strictly for this compound: O=c1cc(Cn2ccnc2)oc2ccccc12 condition met

# TODO verify Ratio IC50 < 5 strictly for this compound: COc1ccc2c(=O)cc(Cn3ccnc3)oc2c1 condition met

# TODO verify Ratio IC50 < 5 strictly for this compound: O=c1c(Cc2ccncc2)coc2ccccc12 condition not met

# TODO verify Ratio IC50 < 5 strictly for this compound: COc1ccc2c(=O)c(Cn3ccnc3)coc2c1 condition met

# TODO verify Ratio IC50 < 5 strictly for this compound: COc1ccc2c(=O)c(Cc3c[nH]cn3)coc2c1 condition not met

# TODO verify Ratio IC50 < 5 strictly for this compound: O=c1c(Cc2ccncc2)coc2cc(F)ccc12 condition not met

###

- experimental.target: Cytochrome P450 11B2, mitochondrial (Homo sapiens, UniProt P19099)
- Sequence (P19099 whole entry): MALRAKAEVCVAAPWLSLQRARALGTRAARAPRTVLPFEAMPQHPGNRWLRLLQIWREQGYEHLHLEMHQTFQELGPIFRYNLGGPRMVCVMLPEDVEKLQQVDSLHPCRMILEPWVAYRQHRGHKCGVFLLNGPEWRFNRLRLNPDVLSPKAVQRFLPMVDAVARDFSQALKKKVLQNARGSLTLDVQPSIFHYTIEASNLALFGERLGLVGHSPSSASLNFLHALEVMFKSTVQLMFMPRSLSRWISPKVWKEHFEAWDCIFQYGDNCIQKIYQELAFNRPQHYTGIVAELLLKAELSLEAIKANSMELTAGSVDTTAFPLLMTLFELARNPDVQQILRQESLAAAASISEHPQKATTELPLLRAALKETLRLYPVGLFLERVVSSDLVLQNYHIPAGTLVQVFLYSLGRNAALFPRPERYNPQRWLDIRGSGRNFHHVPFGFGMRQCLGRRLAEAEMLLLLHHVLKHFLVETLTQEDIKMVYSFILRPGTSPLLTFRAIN
- assay.explanation: Inhibition of human CYP11B2 expressed in V79 MZh cells using [1,2-3H]-11-deoxycorticosterone as substrate for 30 mins by HPTLC analysis
- Format: cell-based, V79MZh
parameter: IC50
Give the number first and the unit second.

Here O=c1cc(Cc2ccncc2)oc2ccccc12 was tested on Cytochrome P450 11B2, mitochondrial (Homo sapiens, UniProt P19099), and its IC50 came to 1240 nM

Here O=c1c(Cc2ccncc2)coc2ccccc12 was tested on Cytochrome P450 11B2, mitochondrial (Homo sapiens, UniProt P19099), and its IC50 came to 954 nM

Here COc1ccc2c(=O)c(Cn3ccnc3)coc2c1 was tested on Cytochrome P450 11B2, mitochondrial (Homo sapiens, UniProt P19099), and its IC50 came to 768 nM

Here COc1ccc2c(=O)c(Cc3c[nH]cn3)coc2c1 was tested on Cytochrome P450 11B2, mitochondrial (Homo sapiens, UniProt P19099), and its IC50 came to 1070 nM
